- Target Entity: Thromboxane synthetase (Homo sapiens)
- Sequence (P24557 1-533): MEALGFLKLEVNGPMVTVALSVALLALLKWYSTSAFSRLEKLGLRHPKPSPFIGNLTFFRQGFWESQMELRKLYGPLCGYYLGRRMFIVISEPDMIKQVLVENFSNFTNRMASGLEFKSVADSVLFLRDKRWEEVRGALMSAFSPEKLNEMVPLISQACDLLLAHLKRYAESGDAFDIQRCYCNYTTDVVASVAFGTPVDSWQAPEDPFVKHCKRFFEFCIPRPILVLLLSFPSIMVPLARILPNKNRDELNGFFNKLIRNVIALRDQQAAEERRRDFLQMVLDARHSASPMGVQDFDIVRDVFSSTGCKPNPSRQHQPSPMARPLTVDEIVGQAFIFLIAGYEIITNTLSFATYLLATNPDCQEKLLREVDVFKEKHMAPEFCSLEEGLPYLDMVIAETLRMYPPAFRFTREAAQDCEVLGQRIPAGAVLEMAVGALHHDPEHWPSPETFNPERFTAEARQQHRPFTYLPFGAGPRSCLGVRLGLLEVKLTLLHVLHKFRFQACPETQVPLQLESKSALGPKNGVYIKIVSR
- Protocol: Inhibition of thromboxane synthetase (platelet membrane preparation, 14C-arachidonic acid to thromboxane-B2)
- Study Conditions: read-out: I50 thromboxane synthetase
Measured Metric: IC50 (µM)

Line Notation	Unit Tag	Data Value
C(=Cc1ccccc1)Cn1ccnc1.Cl	µM	30
